Tested on: LG0567-F671-PDC complex spheroids viability
Experiment notes: Anticancer human tumor LG0567-F671-PDC patient-derived lung adenocarcinoma cell line growth inhibition [RAS]; active = viability on the fitted dose curve at most 10% of control; inactive = the rest
Cond: second compound 0.316 µM; first compound 10 µM
Form entry, call: pick from active, inactive

These recorded examples may help you get a feel for the data.
Compound: C[C@@H](NC(=O)c1ncnc(N)c1Cl)c1ncc(C(=O)Nc2cc(C(F)(F)F)c(Cl)cn2)s1 + C#Cc1c(F)ccc2cc(O)cc(-c3ncc4c(N5CC6CCC(C5)N6)nc(OCC56CCCN5CC(F)C6)nc4c3F)c12
Assay system: LG0567-F671-PDC complex spheroids viability
Discrete label: inactive

Compound: CC(=O)OC12COC1CC(O)C1(C)C(=O)C(O)C3=C(C)C(OC(=O)C(O)C(NC(=O)OC(C)(C)C)c4ccccc4)CC(O)(C(OC(=O)c4ccccc4)C21)C3(C)C (centres undefined) + C#Cc1c(F)ccc2cc(O)cc(-c3ncc4c(N5CC6CCC(C5)N6)nc(OCC56CCCN5CC(F)C6)nc4c3F)c12
Assay system: LG0567-F671-PDC complex spheroids viability
Discrete label: inactive

Task: # lookup: test call for CC(=O)OC12COC1CC(O)C1(C)C(=O)C(O)C3=C(C)C(OC(=O)C(O)C(NC(=O)OC(C)(C)C)c4ccccc4)CC(O)(C(OC(=O)c4ccccc4)C21)C3(C)C (centres undefined) + C=CC(=O)N1CCN(c2nc(OCC3CCCN3C)nc3c(F)c(-c4nc(N)cc(C)c4C(F)(F)F)c(Cl)cc23)C(C)C1
Result: inactive

Task: # lookup: test call for C[C@@H](NC(=O)c1ncnc(N)c1Cl)c1ncc(C(=O)Nc2cc(C(F)(F)F)c(Cl)cn2)s1 + C=CC(=O)N1CCN(c2nc(OCC3CCCN3C)nc3c(F)c(-c4nc(N)cc(C)c4C(F)(F)F)c(Cl)cc23)C(C)C1
Result: inactive

Task: # lookup: test call for NC1c2ccccc2OC12CCN(c1cnc3c(N4CCCc5ncccc54)n[nH]c3n1)CC2 (centres undefined) + C#Cc1c(F)ccc2cc(O)cc(-c3ncc4c(N5CC6CCC(C5)N6)nc(OCC56CCCN5CC(F)C6)nc4c3F)c12
Result: active

Task: # lookup: test call for CC(Nc1ccc2c(c1)OCCn1cc(N3C(=O)OCC3C(F)F)nc1-2)C(N)=O (centres undefined) + C#Cc1c(F)ccc2cc(O)cc(-c3ncc4c(N5CC6CCC(C5)N6)nc(OCC56CCCN5CC(F)C6)nc4c3F)c12
Result: inactive

Task: # lookup: test call for CCC(CC)c1cc(NC2CCC(N)C2)n2nccc2n1 (centres undefined) + C#Cc1c(F)ccc2cc(O)cc(-c3ncc4c(N5CC6CCC(C5)N6)nc(OCC56CCCN5CC(F)C6)nc4c3F)c12
Result: active

Task: # lookup: test call for Cc1nc(N2CCC3(CC2)COC(C)C3N)c(CO)nc1Sc1ccnc(N)c1Cl (centres undefined) + C#Cc1c(F)ccc2cc(O)cc(-c3ncc4c(N5CC6CCC(C5)N6)nc(OCC56CCCN5CC(F)C6)nc4c3F)c12
Result: active

Task: # lookup: test call for CC1(O)CCCC1n1c(=O)c(C(F)F)cc2cnc(NC3CCN(S(C)(=O)=O)CC3)nc21 (centres undefined) + C#Cc1c(F)ccc2cc(O)cc(-c3ncc4c(N5CC6CCC(C5)N6)nc(OCC56CCCN5CC(F)C6)nc4c3F)c12
Result: inactive

###

Tested on: LG0567-F671-PDC complex spheroids viability
Experiment notes: Anticancer human tumor LG0567-F671-PDC cell line growth inhibition [RAS];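 also: spheroids exposed to compound for seven days before readout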
Cond: second compound 0.316 µM; first compound 0.00316 µM; stronger effect = lower value
Record form. Attribute: viability, T/C. Fill in for each entry.

Below, each entry is followed by its recorded viability, T/C result.
Compound: CC(C)n1nc(-c2ccc3oc(N)nc3c2)c2c(N)ncnc21 + C=CC(=O)N1CCN(c2nc(OCC3CCCN3C)nc3c(F)c(-c4nc(N)cc(C)c4C(F)(F)F)c(Cl)cc23)C(C)C1
Endpoint result: 9.88%

Compound: C=CC(=O)Nc1cc(Nc2nccc(-c3cn(C)c4ccccc34)n2)c(OC)cc1N(C)CCN(C)C + C=CC(=O)N1CCN(c2nc(OCC3CCCN3C)nc3c(F)c(-c4nc(N)cc(C)c4C(F)(F)F)c(Cl)cc23)C(C)C1
Endpoint result: 14%

Compound: O=C(c1ccc(F)c(F)c1Nc1ccc(I)cc1F)N1CC(O)([C@@H]2CCCCN2)C1 + C#Cc1c(F)ccc2cc(O)cc(-c3ncc4c(N5CC6CCC(C5)N6)nc(OCC56CCCN5CC(F)C6)nc4c3F)c12
Endpoint result: 52.8%

Compound: Nc1ccn(C2OC(CO)C(O)C2(F)F)c(=O)n1 (stereo not given) + C=CC(=O)N1CCN(c2nc(OCC3CCCN3C)nc3c(F)c(-c4nc(N)cc(C)c4C(F)(F)F)c(Cl)cc23)C(C)C1
Endpoint result: 13.4%

The measured viability, T/C associated with O=C(c1ccc(F)c(F)c1Nc1ccc(I)cc1F)N1CC(O)([C@@H]2CCCCN2)C1 + C=CC(=O)N1CCN(c2nc(OCC3CCCN3C)nc3c(F)c(-c4nc(N)cc(C)c4C(F)(F)F)c(Cl)cc23)C(C)C1 reads 12.2%

###

System: LG0567-F671-PDC complex spheroids viability
Experiment notes: Anticancer human tumor LG0567-F671-PDC cell line growth inhibition [RAS];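 also: spheroids exposed to compound for seven days before readout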
Cond: second compound 0.00949 µM; first compound 0.000949 µM; stronger effect = lower value
Record form. Attribute: viability, T/C. Fill in for each entry.
Numbers only, in %.

Give viability, T/C for all molecules that follow.
1. CCc1c2c(nc3ccc(O)cc13)-c1cc3c(c(=O)n1C2)COC(=O)[C@]3(O)CC + CCn1c(-c2cccnc2C(C)OC)c2c3cc(ccc31)N1CCOC(CC(NC(=O)C(C(C)C)N(C)C(=O)C3(F)CCN(C(=O)C#CC(C)(C)N(C)C)CC3)C(=O)N3CCCC(N3)C(=O)OCC(C)(C)C2)C1
2. CCc1c2c(nc3ccc(O)cc13)-c1cc3c(c(=O)n1C2)COC(=O)[C@]3(O)CC + CCn1c(-c2cc(N3CCN(C)CC3)cnc2C(C)OC)c2c3cc(ccc31)-c1csc(n1)CC(NC(=O)C1CC1C)C(=O)N1CCCC(N1)C(=O)OCC(C)(C)C2
3. CC1(C)CCC(Nc2ncc(C(F)(F)F)c(-c3c[nH]c4c(P(C)(C)=O)c(C#N)ccc34)n2)CN1 (centres undefined) + CCn1c(-c2cccnc2C(C)OC)c2c3cc(ccc31)N1CCOC(CC(NC(=O)C(C(C)C)N(C)C(=O)C3(F)CCN(C(=O)C#CC(C)(C)N(C)C)CC3)C(=O)N3CCCC(N3)C(=O)OCC(C)(C)C2)C1
4. CC1(C)CCC(Nc2ncc(C(F)(F)F)c(-c3c[nH]c4c(P(C)(C)=O)c(C#N)ccc34)n2)CN1 (centres undefined) + CCn1c(-c2cc(N3CCN(C)CC3)cnc2C(C)OC)c2c3cc(ccc31)-c1csc(n1)CC(NC(=O)C1CC1C)C(=O)N1CCCC(N1)C(=O)OCC(C)(C)C2

Result:
13.6
6.6
10.9
5.65

###

Tested on: LG0567-F671-PDC complex spheroids viability
Experiment notes: Anticancer human tumor LG0567-F671-PDC cell line growth inhibition [RAS];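 also: spheroids exposed to compound for seven days before readout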
Cond: second compound 0.000949 µM; first compound 0.1 µM; stronger effect = lower value
Could you please mark True for values of viability, T/C below 9% and False for values at or above it?

Compound: NC1c2ccccc2OC12CCN(c1cnc3c(N4CCCc5ncccc54)n[nH]c3n1)CC2 (stereo not given) + CCn1c(-c2cccnc2C(C)OC)c2c3cc(ccc31)N1CCOC(CC(NC(=O)C(C(C)C)N(C)C(=O)C3(F)CCN(C(=O)C#CC(C)(C)N(C)C)CC3)C(=O)N3CCCC(N3)C(=O)OCC(C)(C)C2)C1
Discrete label: True

Compound: CC(=O)OC12COC1CC(O)C1(C)C(=O)C(O)C3=C(C)C(OC(=O)C(O)C(NC(=O)OC(C)(C)C)c4ccccc4)CC(O)(C(OC(=O)c4ccccc4)C21)C3(C)C (stereo not given) + CCn1c(-c2cc(N3CCN(C)CC3)cnc2C(C)OC)c2c3cc(ccc31)-c1csc(n1)CC(NC(=O)C1CC1C)C(=O)N1CCCC(N1)C(=O)OCC(C)(C)C2
Discrete label: False

Compound: C[C@@H](NC(=O)c1ncnc(N)c1Cl)c1ncc(C(=O)Nc2cc(C(F)(F)F)c(Cl)cn2)s1 + CCn1c(-c2cc(N3CCN(C)CC3)cnc2C(C)OC)c2c3cc(ccc31)-c1csc(n1)CC(NC(=O)C1CC1C)C(=O)N1CCCC(N1)C(=O)OCC(C)(C)C2
Discrete label: False

Compound: O=C(c1ccc(F)c(F)c1Nc1ccc(I)cc1F)N1CC(O)([C@@H]2CCCCN2)C1 + CCn1c(-c2cccnc2C(C)OC)c2c3cc(ccc31)N1CCOC(CC(NC(=O)C(C(C)C)N(C)C(=O)C3(F)CCN(C(=O)C#CC(C)(C)N(C)C)CC3)C(=O)N3CCCC(N3)C(=O)OCC(C)(C)C2)C1
Discrete label: True

Compound: Nc1ccn(C2OC(CO)C(O)C2(F)F)c(=O)n1 (stereo not given) + CCn1c(-c2cccnc2C(C)OC)c2c3cc(ccc31)N1CCOC(CC(NC(=O)C(C(C)C)N(C)C(=O)C3(F)CCN(C(=O)C#CC(C)(C)N(C)C)CC3)C(=O)N3CCCC(N3)C(=O)OCC(C)(C)C2)C1
Discrete label: False

Task: Answer whether the compound CC(Nc1ccc2c(c1)OCCn1cc(N3C(=O)OCC3C(F)F)nc1-2)C(N)=O (stereo not given) + CCn1c(-c2cccnc2C(C)OC)c2c3cc(ccc31)N1CCOC(CC(NC(=O)C(C(C)C)N(C)C(=O)C3(F)CCN(C(=O)C#CC(C)(C)N(C)C)CC3)C(=O)N3CCCC(N3)C(=O)OCC(C)(C)C2)C1 has viability, T/C strictly less than 9%
Result: True

Task: Answer whether the compound Cc1nc(N2CCC3(CC2)COC(C)C3N)c(CO)nc1Sc1ccnc(N)c1Cl (stereo not given) + CCn1c(-c2cccnc2C(C)OC)c2c3cc(ccc31)N1CCOC(CC(NC(=O)C(C(C)C)N(C)C(=O)C3(F)CCN(C(=O)C#CC(C)(C)N(C)C)CC3)C(=O)N3CCCC(N3)C(=O)OCC(C)(C)C2)C1 has viability, T/C strictly less than 9%
Result: True

Task: Answer whether the compound NC1c2ccccc2OC12CCN(c1cnc3c(N4CCCc5ncccc54)n[nH]c3n1)CC2 (stereo not given) + CCn1c(-c2cc(N3CCN(C)CC3)cnc2C(C)OC)c2c3cc(ccc31)-c1csc(n1)CC(NC(=O)C1CC1C)C(=O)N1CCCC(N1)C(=O)OCC(C)(C)C2 has viability, T/C strictly less than 9%
Result: True

Task: Answer whether the compound Nc1ccn(C2OC(CO)C(O)C2(F)F)c(=O)n1 (stereo not given) + CCn1c(-c2cc(N3CCN(C)CC3)cnc2C(C)OC)c2c3cc(ccc31)-c1csc(n1)CC(NC(=O)C1CC1C)C(=O)N1CCCC(N1)C(=O)OCC(C)(C)C2 has viability, T/C strictly less than 9%
Result: False

Task: Answer whether the compound CC(C)n1nc(-c2ccc3oc(N)nc3c2)c2c(N)ncnc21 + CCn1c(-c2cc(N3CCN(C)CC3)cnc2C(C)OC)c2c3cc(ccc31)-c1csc(n1)CC(NC(=O)C1CC1C)C(=O)N1CCCC(N1)C(=O)OCC(C)(C)C2 has viability, T/C strictly less than 9%
Result: True

Every entry's value here was drawn from PubChem BioAssay AID2060889.
